Origin of the recorded values: patent US5108996A

Below: a set of entries, each annotated with reported percentage of inhibition.
System: lipid peroxidation (MDA formation) in rat liver microsomes
Assay: MDA formation triggered enzymatically by NADPH and carbon tetrachloride in liver microsomes of phenobarbital-pretreated rats (antioxidant activity)
Type: biochemical
Details: 5 × 10^-6 M, NADPH/CCl4
Output: the number by itself.

// solved cases for percentage of inhibition follow
>>> recorded_number("CN(C)c1ccc([C@H]2C[C@@]3(C)[C@@H](CC[C@@]3(O)C#CCN3CCN(c4cc(N5CCCC5)nc(N5CCCC5)n4)CC3)[C@@H]3CCC4=CC(=O)CCC4=C32)cc1 [Example 1]")
58
>>> recorded_number("CCN(CC)c1ccc(N(CC)CC)c(N2CCN(CC#C[C@]3(O)CC[C@H]4[C@@H]5CCC6=CC(=O)CCC6=C5[C@@H](c5ccc(N(C)C)cc5)C[C@@]43C)CC2)n1")
85
>>> recorded_number("CN(C)c1ccc([C@H]2C[C@@]3(C)[C@@H](CC[C@@]3(O)C#CCN3CCN(c4cc(N5CCCC5)nc(N5CCCC5)n4)CC3)[C@@H]3CCC4=CC(=O)CCC4=C32)cc1 [Example 2]")
82

We next turn to a different compound, shown below.
Q) Quick one: percentage of inhibition for `CCN(CC)c1ccc(N2CCN(CC#C[C@]3(O)CC[C@H]4[C@@H]5CCC6=CC(=O)CCC6=C5[C@@H](c5ccc(N(C)C)cc5)C[C@@]43C)CC2)nc1N(CC)CC` ?
A) 88
